System: PC-3
EXPERIMENT_DESCRIPTION: Inhibition of cell proliferation in human PC-3 cells incubated for 72 hrs by MTT assay
Assay type: functional, cell-based
MEASUREMENT_PARAMETERS: PC-3, 72 h
Record form. Attribute: pIC50. Fill in for each entry.
Note: pIC50 values are expressed as the negative base-10 logarithm of concentration in M.

Q) Please give the measured pIC50 for this compound: COc1ccc(-c2cc(C)nc3nc(SCc4ccc(Br)cc4)nn23)c(OC)c1
A) 4.93

Q) Next compound up: O=c1[nH]cc(F)c(=O)[nH]1
A) 4.99

====

EXPERIMENT_DESCRIPTION: MRT(infinity) in Sprague-Dawley rat at 50 mg/kg, po measured upto 24 hrs by LC/MS-MS analysis
Assay type: ADME, organism-based
MEASUREMENT_PARAMETERS: in vivo
MEASURE_NAME: MRT inf (h)
Record the value in h, omitting the unit from your answer.

Q) Please give the measured MRT inf for this compound: COc1ccc(-c2cc(C)nc3nc(SCc4ccc(Br)cc4)nn23)c(OC)c1
A) 10.2

====

TARGET_OF_ASSAY: Cyclin-dependent kinases regulatory subunit 1/S-phase kinase-associated protein 2 (Homo sapiens)
Sequence (P61024 whole entry): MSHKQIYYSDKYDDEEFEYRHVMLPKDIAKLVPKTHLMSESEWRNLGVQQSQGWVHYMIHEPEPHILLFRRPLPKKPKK
Sequence (Q13309 whole entry): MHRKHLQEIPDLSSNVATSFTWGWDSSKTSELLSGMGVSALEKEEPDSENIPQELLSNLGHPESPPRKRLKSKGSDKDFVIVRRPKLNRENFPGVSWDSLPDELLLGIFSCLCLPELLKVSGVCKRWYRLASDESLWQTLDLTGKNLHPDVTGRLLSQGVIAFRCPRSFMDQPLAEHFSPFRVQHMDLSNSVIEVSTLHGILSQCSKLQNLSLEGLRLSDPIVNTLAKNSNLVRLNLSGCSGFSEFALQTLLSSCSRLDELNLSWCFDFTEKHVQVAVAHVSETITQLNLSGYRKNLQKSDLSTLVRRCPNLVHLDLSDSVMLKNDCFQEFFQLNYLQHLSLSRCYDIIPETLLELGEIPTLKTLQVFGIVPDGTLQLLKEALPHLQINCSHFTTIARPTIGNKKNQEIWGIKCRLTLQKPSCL
EXPERIMENT_DESCRIPTION: Inhibition of GST-tagged SKP2 (unknown origin) binding to His6-tagged CKS1 (unknown origin) incubated for 1 hr by AlphaScreen assay
Assay type: protein assay
Record form. Attribute: pIC50. Fill in for each entry.
Note: pIC50 values are expressed as the negative base-10 logarithm of concentration in M.

Q) Please give the measured pIC50 for this compound: O=C(OCC12CC3CC(CC(C3)C1)C2)c1ccc(NCc2cc(O)ccc2O)cc1
A) 4.44

Q) Next compound up: COC(=O)c1ccc(CCc2cc(O)ccc2O)cc1
A) 4.44

====

TARGET_OF_ASSAY: Cyclin-dependent kinases regulatory subunit 1/S-phase kinase-associated protein 2 (Homo sapiens) (UniProt P61024+Q13309)
EXPERIMENT_DESCRIPTION: Inhibition of GST-tagged SKP2 (unknown origin) binding to His6-tagged CKS1 (unknown origin) at 50 uM preincubated with SKP2 for 10 mins followed by CKS1 addition for 20 mins and measured after by HTRF method relative to control
Format: protein assay
MEASUREMENT_PARAMETERS: time 30.0 min
MEASURE_NAME: inhibition (%)
Record the value in %, omitting the unit from your answer.

Q) Please give the measured inhibition for this compound: COc1cc(OC)c(-c2cc(C)nc3nc(SCc4ccc(I)cc4)nn23)c(OC)c1
A) 41.7

Q) Next compound up: COc1cc(OC)c(-c2cc(C)nc3nc(SCc4ccccc4)nn23)c(OC)c1
A) 60

Q) Next compound up: COc1cc(OC)c(-c2cc(C)nc3nc(SCC4CCC4)nn23)c(OC)c1
A) 20.2

Q) Next compound up: COc1cc(OC)c(-c2cc(C)nc3nc(SCC4CCOCC4)nn23)c(OC)c1
A) 16.3

Q) Next compound up: COC(=O)c1cccc(CSc2nc3nc(C)cc(-c4c(OC)cc(OC)cc4OC)n3n2)c1
A) 10.2

====

Record form. Attribute: IC50. Fill in for each entry.
TARGET_OF_ASSAY: Cyclin-dependent kinases regulatory subunit 1/S-phase kinase-associated protein 2 (Homo sapiens)
EXPERIMENT_DESCRIPTION: Inhibition of GST-tagged SKP2 (unknown origin) binding to His6-tagged CKS1 (unknown origin) preincubated with SKP2 for 10 mins followed by CKS1 addition for 20 mins and measured after by HTRF method
Assay type: protein assay

Q) Please give the measured IC50 for this molecule: Cc1cc(Cl)n2nc(SCc3ccc(Br)cc3)nc2n1
A) 75.1 µM

Q) Next molecule up: Cc1cc(-c2cccc(C(=O)N3CCN(C)CC3)c2)n2nc(SCc3ccc(Br)cc3)nc2n1
A) > 100 µM

Q) Next molecule up: COc1cc(OC)c(-c2cc(C)nc3nc(SCc4ccc(Cl)cc4)nn23)c(OC)c1
A) > 100 µM

Q) Next molecule up: COc1cc(OC)c(-c2cc(C)nc3nc(SCc4cccc(Br)c4)nn23)c(OC)c1
A) 61 µM

Q) Next molecule up: COC(=O)c1ccc(Nc2cc(C)nc3nc(SCc4ccc(Br)cc4)nn23)cc1
A) > 100 µM

Q) Next molecule up: COc1cc(OC)c(-c2cc(C)nc3nc(SCc4ccncc4)nn23)c(OC)c1
A) > 100 µM

Q) Next molecule up: Cc1cc(-c2ccccc2)n2nc(SCc3ccc(Br)cc3)nc2n1
A) 45.1 µM

Q) Next molecule up: COc1cccc(OC)c1-c1cc(C)nc2nc(SCc3ccc(Br)cc3)nn12
A) 75.6 µM

Q) Next molecule up: COc1cc(OC)c(-c2cc(C)nc3nc(SCc4cccc(Cl)c4)nn23)c(OC)c1
A) > 100 µM

Q) Next molecule up: COc1cc(OC)c(-c2cc(C)nc3nc(SCc4ccc(C(F)(F)F)cc4)nn23)c(OC)c1
A) 93.1 µM

Q) Next molecule up: COc1ccc(-c2cc(C)nc3nc(SCc4ccc(Br)cc4)nn23)c(OC)c1
A) 4.86 µM

Q) Next molecule up: COc1cc(OC)c(-c2cc(C)nc3nc(SCC4CCC4)nn23)c(OC)c1
A) 82.5 µM

Q) Next molecule up: COc1cc(OC)c(-c2cc(C)nc3nc(SCc4ccccc4)nn23)c(OC)c1
A) 14.7 µM

Q) Next molecule up: COc1ccccc1-c1cc(C)nc2nc(SCc3ccc(Br)cc3)nn12
A) > 100 µM

Q) Next molecule up: COc1cc(OC)c(-c2cc(C)nc3nc(SCc4ccc(Br)cc4)nn23)c(OC)c1
A) 11.9 µM

Q) Next molecule up: COc1cc(OC)c(-c2cc(C)nc3nc(SCC4CCCCC4)nn23)c(OC)c1
A) 17.4 µM

Q) Next molecule up: Cc1cc(Br)n2nc(SCc3ccc(Br)cc3)nc2n1
A) 68 µM

Q) Next molecule up: COc1cc(OC)c(-c2cc(C)nc3nc(SCc4cnc(Cl)s4)nn23)c(OC)c1
A) 72.5 µM

Q) Next molecule up: COc1cc(-c2cc(C)nc3nc(SCc4ccc(Br)cc4)nn23)cc(OC)c1OC
A) 30.9 µM

Q) Next molecule up: CCSc1nc2nc(C)cc(-c3c(OC)cc(OC)cc3OC)n2n1
A) > 100 µM

Q) Next molecule up: COc1cc(OC)c(-c2cc(C)nc3nc(SCCCc4ccccc4)nn23)c(OC)c1
A) > 100 µM
